Target System: Nucleoli Translocation, AR (gene 367) (UniProt P10275)
Sequence (P10275 whole entry, looked up): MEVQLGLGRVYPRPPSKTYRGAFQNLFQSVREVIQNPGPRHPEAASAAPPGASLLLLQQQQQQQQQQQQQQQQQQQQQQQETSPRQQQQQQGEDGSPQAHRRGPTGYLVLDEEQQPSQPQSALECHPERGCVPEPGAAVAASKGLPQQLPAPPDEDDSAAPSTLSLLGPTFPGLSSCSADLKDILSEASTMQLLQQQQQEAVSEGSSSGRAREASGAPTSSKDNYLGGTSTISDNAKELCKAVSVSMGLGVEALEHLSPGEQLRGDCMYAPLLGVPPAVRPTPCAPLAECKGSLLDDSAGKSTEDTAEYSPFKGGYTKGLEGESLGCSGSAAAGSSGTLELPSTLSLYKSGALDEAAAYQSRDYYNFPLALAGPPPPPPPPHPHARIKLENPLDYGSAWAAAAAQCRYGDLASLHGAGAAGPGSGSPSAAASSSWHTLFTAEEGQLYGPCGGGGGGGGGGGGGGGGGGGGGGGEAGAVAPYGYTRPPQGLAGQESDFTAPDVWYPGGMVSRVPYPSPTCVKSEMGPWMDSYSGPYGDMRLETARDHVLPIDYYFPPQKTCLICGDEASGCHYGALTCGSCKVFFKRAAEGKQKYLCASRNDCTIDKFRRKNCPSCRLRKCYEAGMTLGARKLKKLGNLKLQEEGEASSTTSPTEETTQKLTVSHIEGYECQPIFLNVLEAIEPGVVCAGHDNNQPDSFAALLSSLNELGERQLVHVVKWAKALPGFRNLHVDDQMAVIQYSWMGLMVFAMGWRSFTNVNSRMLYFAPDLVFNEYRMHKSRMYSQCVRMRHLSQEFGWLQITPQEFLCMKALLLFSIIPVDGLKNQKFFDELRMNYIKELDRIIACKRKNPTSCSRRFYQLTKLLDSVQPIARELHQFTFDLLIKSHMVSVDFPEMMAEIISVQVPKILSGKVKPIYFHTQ
Procedure Summary: UPITT_HCI_U2OS_AR_TIF2_Nucleoli_Antagonist: University of Pittsburgh U2OS Androgen Receptor-Transcriptional Intermediary Factor 2 (AR-TIF2) Antagonism High Content Imaging Assay for Nucleoli Translocation (AID 2283997)
Results filed as inconclusive are left out. Activity calls are given as the source filed them. Rule for the calls: active = hit-call score of the fitted dose curve at least 0.9, where 1 is the maximum; inconclusive = response in the unintended direction; inactive = score below 0.9.
Answer with one of the outcomes given here: active, inactive

Request: How did this test come out for COc1cc(C(C)C)c2c(c1)S(=O)(=O)N(COc1cc(=O)n3cccc(OCCN4CCCCC4)c3n1)C2=O ?
Result: active

Request: How did this test come out for CCc1cccc(CC)c1N ?
Result: inactive

Request: How did this test come out for CCN(CC)C(=S)SSC(=S)N(CC)CC ?
Result: active

Request: How did this test come out for CCCCOC(=O)c1ccccc1 ?
Result: inactive

Request: How did this test come out for CCCCC(CC)C(=O)OCCOCCOCCOC(=O)C(CC)CCCC (stereo not given) ?
Result: inactive

Request: How did this test come out for CCCCCCOC(=O)CC(CC(=O)OCCCCCC)(OC(=O)CCC)C(=O)OCCCCCC ?
Result: inactive

Request: How did this test come out for Cc1nc(-c2ccccn2)ncc1C(=O)Nn1cc(C)c2cc(F)ccc21 ?
Result: inactive

Request: How did this test come out for CCCCCCCCCCCCCCCCOS(=O)(=O)O ?
Result: inactive

Request: How did this test come out for OCCOCCOCCO ?
Result: inactive

Request: How did this test come out for OCc1ccccc1 ?
Result: inactive

----------
Target System: Hypoxia-inducible factor 1-alpha (Homo sapiens) (UniProt Q16665)
Sequence (Q16665 whole entry, looked up): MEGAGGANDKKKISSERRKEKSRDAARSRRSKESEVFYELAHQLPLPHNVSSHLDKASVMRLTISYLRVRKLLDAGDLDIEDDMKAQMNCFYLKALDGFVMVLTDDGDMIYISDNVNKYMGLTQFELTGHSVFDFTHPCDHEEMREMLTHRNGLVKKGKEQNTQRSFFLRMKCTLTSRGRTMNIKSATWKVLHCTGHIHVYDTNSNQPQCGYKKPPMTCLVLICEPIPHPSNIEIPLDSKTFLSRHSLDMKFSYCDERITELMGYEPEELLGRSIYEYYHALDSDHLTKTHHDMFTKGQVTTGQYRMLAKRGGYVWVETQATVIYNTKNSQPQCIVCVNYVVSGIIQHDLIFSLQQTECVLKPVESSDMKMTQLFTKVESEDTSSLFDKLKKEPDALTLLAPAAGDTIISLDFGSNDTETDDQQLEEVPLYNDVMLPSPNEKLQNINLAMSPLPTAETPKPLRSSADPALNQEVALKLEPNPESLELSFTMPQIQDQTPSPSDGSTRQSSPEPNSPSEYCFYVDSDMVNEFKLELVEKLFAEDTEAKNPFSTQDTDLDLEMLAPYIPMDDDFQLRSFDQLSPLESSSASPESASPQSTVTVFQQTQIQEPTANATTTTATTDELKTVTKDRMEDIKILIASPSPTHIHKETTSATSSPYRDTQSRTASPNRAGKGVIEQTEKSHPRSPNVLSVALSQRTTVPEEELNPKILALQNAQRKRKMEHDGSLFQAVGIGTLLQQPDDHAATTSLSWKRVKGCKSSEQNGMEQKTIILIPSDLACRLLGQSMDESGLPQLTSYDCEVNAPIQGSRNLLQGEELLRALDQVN
Procedure Summary: ATG_HIF1a_CIS: Attagene CIS-FACTORIAL HepG2 Assay for human Hypoxia Inducible Factor 1 (HIF1A) (AID 2282951)
Measurement Context: HepG2 Attagene cis-factorial HIF1a reporter transcription; actives raise or lower the signal
Method: ATG_CIS is a cell-based, multiplexed-readout assay that uses HepG2, a human liver cell line, with measurements taken at 24 hours after chemical dosing in a 24-well plate.ATG_HIF1a_CIS is one of 52 assay component(s) measured or calculated from the ATG_CIS assay. […] This assay endpoint, ATG_HIF1a_CIS, was analyzed with bidirectional fitting relative to DMSO as the negative control and baseline of activity. […]
The source made the active and inactive calls. How the source made its calls: active means hit-call score of the fitted dose curve at least 0.9, where 1 is the maximum; inactive means score below 0.9.
Answer with one of the outcomes given here: label 1 = active, label 0 = inactive

Request: How did this test come out for CC1(C)C(=O)N(Cl)C(=O)N1Cl ?
Result: label 0

Request: How did this test come out for CCCCCCCCCCCCCCCCOS(=O)(=O)O ?
Result: label 0

Request: How did this test come out for CCc1cccc(CC)c1N ?
Result: label 0

Request: How did this test come out for CCc1ccc(O)c(C(C)(C)C)c1 ?
Result: label 1

Request: How did this test come out for NC(=O)N1c2ccccc2C=Cc2ccccc21 ?
Result: label 0

Request: How did this test come out for O=C(O)c1ccc2c(c1)nc(C(=O)NC1CCN(C3CC3)CC1)n2Cc1cc(-c2ccc(Cl)s2)on1 ?
Result: label 0

Request: How did this test come out for OCCOCCOCCO ?
Result: label 0

Request: How did this test come out for FC(F)C(F)(F)COCC1CO1 (centres undefined) ?
Result: label 0

Request: How did this test come out for OC[C@H]1O[C@@H]2O[C@H]3[C@H](O)[C@@H](O)[C@@H](O[C@H]4[C@H](O)[C@@H](O)[C@@H](O[C@H]5[C@H](O)[C@@H](O)[C@@H](O[C@H]6[C@H](O)[C@@H](O)[C@@H](O[C@H]7[C@H](O)[C@@H](O)[C@@H](O[C@H]1[C@H](O)[C@H]2O)O[C@@H]7CO)O[C@@H]6CO)O[C@@H]5CO)O[C@@H]4CO)O[C@@H]3CO ?
Result: label 0

----------
Read-out: Monokine induced gamma interferon (MIG), CXCL9 (gene 4283)
Procedure Summary: BSK_CASM3C_MIG: BioMAP Diversity Plus: CASM3C Assay for Monokine induced gamma interferon (MIG) Biomarker Activity (AID 2283048);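 note: MIG protein level measured by ELISA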
Measurement Context: primary human coronary artery smooth muscle cells; actives raise or lower the signal
Active and inactive are the calls of the source. How the source made its calls: active means hit-call score of the fitted dose curve at least 0.9, where 1 is the maximum; inactive means score below 0.9.
Answer with one of the outcomes given here: Y (active), N (inactive)

Request: How did this test come out for O=C(O)c1ccc2c(c1)nc(C(=O)NC1CCN(C3CC3)CC1)n2Cc1cc(-c2ccc(Cl)s2)on1 ?
Result: N

Request: How did this test come out for FC(F)=C(F)C(F)(F)C(F)(F)C(F)(F)C(F)(F)C(F)(F)C(F)(F)F ?
Result: N

Request: How did this test come out for FC(F)(F)C(F)(F)C(F)(F)C(F)(F)C(F)(F)C(F)(F)I ?
Result: N

Request: How did this test come out for CC(C)c1nnc2ccc(-c3ocnc3-c3cc(F)ccc3F)cn12 ?
Result: N

Request: How did this test come out for CCCCCOC(C)=O ?
Result: N

Request: How did this test come out for O=c1[nH]cnc2c1ncn2[C@H]1CC[C@@H](CO)O1 ?
Result: N

Request: How did this test come out for C[Si](C)(C)C(F)(F)C(F)(F)C(F)(F)F ?
Result: N

Request: How did this test come out for O=S(=O)(O)CCC(F)(F)C(F)(F)C(F)(F)C(F)(F)C(F)(F)C(F)(F)F ?
Result: N

Request: How did this test come out for c1ccc2c(c1)-c1cccc3c1c-2cc1ccccc13 ?
Result: N

Request: How did this test come out for OCc1c[nH]c2ccccc12 ?
Result: N

Request: How did this test come out for COCc1nnc(-c2ccc[n+]([O-])c2)n1-c1c(Cl)c(Cl)cc2[nH]c(=O)c(=O)[nH]c12 ?
Result: N

Request: How did this test come out for COc1cc(C(C)C)c2c(c1)S(=O)(=O)N(COc1cc(=O)n3cccc(OCCN4CCCCC4)c3n1)C2=O ?
Result: N

Request: How did this test come out for C=CCc1cc(S(=O)(=O)c2ccc(O)c(CC=C)c2)ccc1O ?
Result: Y

Request: How did this test come out for CCCCCCCCCCCCCCCCOS(=O)(=O)O ?
Result: N

Request: How did this test come out for Nc1ccn([C@@H]2O[C@H](CO)[C@@H](O)[C@@H]2O)c(=O)n1 ?
Result: N

Request: How did this test come out for CC(=O)c1ccccc1 ?
Result: N

Request: How did this test come out for OCCNCCO ?
Result: N

Request: How did this test come out for O=C(O)c1cccc(C[C@@H]2COc3ccc(OCc4nc5cc(F)ccc5s4)cc3[C@@H]2O)c1 ?
Result: N

Request: How did this test come out for CCCCCCCCN(C)C ?
Result: N

Request: How did this test come out for c1ccc2ncccc2c1 ?
Result: N

Request: How did this test come out for CCCCN1C(=O)[C@@H]([C@H](O)C2CCCCC2)NC(=O)C12CCN(Cc1ccc(Oc3ccc(C(=O)O)cc3)cc1)CC2 ?
Result: N

Request: How did this test come out for C[C@@H](Oc1ccc(CNC(=O)c2cccnc2Oc2ccc3c(c2)OCO3)c(F)c1)C(=O)O ?
Result: N

Request: How did this test come out for O=C(O)c1cccc(C(=O)O)c1 ?
Result: N

Request: How did this test come out for c1ccc2cc3ccccc3cc2c1 ?
Result: N

Request: How did this test come out for OC(Cn1cncn1)(Cn1cncn1)c1ccc(F)cc1F ?
Result: N

Request: How did this test come out for OCCOCCOCCO ?
Result: N

Request: How did this test come out for CCCC(CCC)C(=O)O ?
Result: N

----------
Procedure Summary: CCTE_Shafer_MEA_acute_per_network_burst_electrodes_number_mean: CCTE's Neural Acute Assay for Mean Number of Electrodes in a Network Burst, Shafer Lab (AID 2284021);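 note: curves fitted for decreases only so hits reduce electrodes per burst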
Activity calls are given as the source filed them. How the source made its calls: active means hit-call score of the fitted dose curve at least 0.9, where 1 is the maximum; inactive means score below 0.9.
Measured Metric: AC50

OC(CCl)CCl
inactive
Cc1ncc([C@@H](CCCCCCc2ccc3c(n2)NCCC3)CC(=O)O)cn1
inactive
c1ccc(C(O[C@@H]2CCCN(CCc3ccc4c(c3)OCO4)C2)c2ccccc2)cc1
inactive
COCc1nnc(-c2ccc[n+]([O-])c2)n1-c1c(Cl)c(Cl)cc2[nH]c(=O)c(=O)[nH]c12
inactive
c1ccc2cc3ccccc3cc2c1
inactive

The compound identified as COc1cc2c(c(OC)c1OC)-c1ccc(OC)c(=O)cc1[C@@H](NC(C)=O)CC2 registered its AC50 at 31.6 µM (active)

The compound identified as COc1cc(C(C)C)c2c(c1)S(=O)(=O)N(COc1cc(=O)n3cccc(OCCN4CCCCC4)c3n1)C2=O registered its AC50 at inactive

The compound identified as CC(C)C(=O)Nc1ccc([N+](=O)[O-])c(C(F)(F)F)c1 registered its AC50 at inactive

The compound identified as CC[C@H](C)C(=O)O[C@H]1C[C@H](O)C=C2C=C[C@H](C)[C@H](CC[C@@H](O)C[C@@H](O)CC(=O)O)[C@H]21 registered its AC50 at inactive
